molecular target: SMARCA2 (Homo sapiens); experiment: MSD SMARCA2 degradation in NCI-H1299 cell line (24 h); assay type: cell-based; set-up: HC: NCI-H1299 cells treated with DMSO; host or cells: NCI-H1299; conditions: NCI-H1299 cells, read-out: SMARCA2 MSD H1299 degradation 24 h: External Abs-DC50
Answer each item with its documented DC50.

Sure, the documented DC50 for O=C1CCC(N2C(=O)c3cccc(OCc4cn(Cc5cccc(N6C[C@H]7C[C@@H]6CN7/C=C/C(=O)c6ccccc6O)n5)nn4)c3C2=O)C(=O)N1 (some centres unmarked) [I-34] is > 1 µM

Sure, the documented DC50 for Cc1ncsc1-c1ccc(CNC(=O)[C@@H]2C[C@@H](O)CN2C(=O)[C@@H](NC(=O)[C@H]2CC[C@@H](c3cnc(N4C5CCC4CN(c4cc(-c6ccccc6O)nnc4N)C5)nc3)CC2)C(C)(C)C)cc1 [I-336] is < 0.1 µM

Sure, the documented DC50 for Cc1ncsc1-c1ccc(CNC(=O)[C@@H]2C[C@@H](O)CN2C(=O)[C@@H](NC(=O)CN2CCC(c3cnc(N4C5CCC4CN(c4cc(-c6ccccc6O)nnc4N)C5)nc3)CC2)C(C)(C)C)cc1 [I-211] is 0.1 to 0.5 µM

Sure, the documented DC50 for CC(c1ccc(C(=O)NCCOCCOCCOCCOCCNc2cccc3c2C(=O)N(C2CCC(=O)NC2=O)C3=O)cc1)n1cc(-c2cc(-c3ccccc3O)nnc2N)cn1 (centres unmarked) [I-10] is > 1 µM

Sure, the documented DC50 for Cn1c(=O)n(C2CCC(=O)NC2=O)c2ccc(CCCOCCOCCOCCOCCNC(=O)CCCCCCCCOc3ccc(N4C[C@H]5C[C@@H]4CN5/C=C/C(=O)c4ccccc4O)nc3)cc21 (some centres unmarked) [I-5] is > 1 µM

* * *

Answer each item with its documented Dmax.
biological target: UniProt P51531; experiment: MSD SMARCA2 degradation in NCI-H1299 cell line (24 h); type: cell-based; design: HC: NCI-H1299 cells treated with DMSO; host or cells: NCI-H1299; conditions: NCI-H1299, NCI-H1299 cells

Sure, the documented Dmax for Cn1c(=O)n(C2CCC(=O)NC2=O)c2ccc(CCCCCN3CCC(n4cc(-c5cc(-c6ccccc6O)nnc5N)cn4)CC3)cc21 (stereo not drawn) is 70 to 90%

Sure, the documented Dmax for Cn1c(=O)n(C2CCC(=O)NC2=O)c2ccc(CCCCCCCc3cn(Cc4cccc(N5C[C@H]6C[C@@H]5CN6/C=C/C(=O)c5ccccc5O)n4)nn3)cc21 (stereo partly drawn) is < 50%

Sure, the documented Dmax for Cn1c(=O)n(C2CCC(=O)NC2=O)c2ccc(CN3CCN(Cc4cnc(N5C6CCC5CN(c5cc(-c7ccccc7O)nnc5N)C6)nc4)CC3)cc21 (stereo not drawn) is < 50%

* * *

Target: SMARCA2 (Homo sapiens)
Test: MSD SMARCA2 degradation in NCI-H1299 cell line (24 h)
Type: cell-based
Parameters: HC: NCI-H1299 cells treated with DMSO; host or cells: NCI-H1299
Settings: NCI-H1299, NCI-H1299 cells
Method: Example 32. MSD SMARCA2 Degradation in […] Cell Line Cell Culture: Cells were cultured in exponential growth phase. Compound Preparation and Treatment: NCI-H1299 cells were seeded into the 96-well plate at 4.0*10^4 cells per 100 ul per well. […] MSD Procedure: The MSD plate was coated with 40 ul cell lysate and incubated at 4° C. overnight. […] MSD plate was washed 3 times with 150 ul 1×TBST per well and 2×MSD reading buffer was added, 150 ul per well, and diluted from 4× with water. […]
measured endpoint: Dmax

Sure, the documented Dmax for Cn1c(=O)n(C2CCC(=O)NC2=O)c2ccc(CCN3CCN(Cc4cnc(N5C6CCC5CN(c5cc(-c7ccccc7O)nnc5N)C6)nc4)CC3)cc21 (stereo not shown) is > 90%

Sure, the documented Dmax for CN(CCCOCCCc1cccc2c1n(C)c(=O)n2C1CCC(=O)NC1=O)Cc1ccc(N2CCN(c3cc(-c4ccccc4O)nnc3N)CC2)cc1 (stereo not shown) is < 50%

Sure, the documented Dmax for Cn1c(=O)n(C2CCC(=O)NC2=O)c2cccc(CN3CCC(n4cc(-c5cc(-c6ccccc6O)nnc5N)cn4)CC3)c21 (stereo not shown) is < 50%

Sure, the documented Dmax for Cn1c(=O)n(C2CCC(=O)NC2=O)c2ccc(CCCCCOc3ccc(CN4CCN(c5cc(-c6ccccc6O)nnc5N)CC4)cc3)cc21 (stereo not shown) is < 50%

Sure, the documented Dmax for "Cc1ncsc1-c1ccc(CNC(=O)[C@@H]2C[C@@H](O)CN2C(=O)[C@@H](NC(=O)CN(C)Cc2ccc(N3CCN(c4cc(-c5ccccc5O)nnc4N)CC3)cc2)C(C)(C)C)cc1" is 70 to 90%

Sure, the documented Dmax for Cn1c(=O)n(C2CCC(=O)NC2=O)c2cccc(CNCCc3cn(Cc4cccc(N5C[C@H]6C[C@@H]5CN6/C=C/C(=O)c5ccccc5O)n4)nn3)c21 (stereo partly shown) is < 50%

Sure, the documented Dmax for Cn1c(=O)n(C2CCC(=O)NC2=O)c2cccc(CCCCc3cn(Cc4cccc(N5C[C@H]6C[C@@H]5CN6/C=C/C(=O)c5ccccc5O)n4)nn3)c21 (stereo partly shown) is 70 to 90%

Sure, the documented Dmax for Cn1c(=O)n(C2CCC(=O)NC2=O)c2ccc(CCCN3CCC(c4cnc(N5C6CCC5CN(c5cc(-c7ccccc7O)nnc5N)C6)nc4)CC3)cc21 (stereo not shown) is > 90%

Sure, the documented Dmax for Cn1c(=O)n(C2CCC(=O)NC2=O)c2ccc(CCCCCCCc3nccc(N4C5CCC4CN(c4cc(-c6ccccc6O)nnc4N)C5)n3)cc21 (stereo not shown) is > 90%

Sure, the documented Dmax for Cn1c(=O)n(C2CCC(=O)NC2=O)c2ccc(CCCOc3cccc(CN4CCN(c5cc(-c6ccccc6O)nnc5N)CC4)c3)cc21 (stereo not shown) is < 50%

Sure, the documented Dmax for Cn1c(=O)n(C2CCC(=O)NC2=O)c2ccc(CCCCN3CCC[C@@H](Cn4cc(-c5cc(-c6ccccc6O)nnc5N)cn4)C3)cc21 (stereo partly shown) is 50 to 70%

Sure, the documented Dmax for CN(CCCc1ccc2c(c1)n(C)c(=O)n2C1CCC(=O)NC1=O)Cc1ccc(N2CCN(c3cc(-c4ccccc4O)nnc3N)CC2)cc1 (stereo not shown) is < 50%

Sure, the documented Dmax for Cn1c(=O)n(C2CCC(=O)NC2=O)c2cccc(CCCN3CCC(Cn4cc(-c5cc(-c6ccccc6O)nnc5N)cn4)CC3)c21 (stereo not shown) is > 90%

* * *

target: SMARCA4 (Homo sapiens, UniProt P51532); construct: SMARCA2 and SMARCA4 protein degradation in MV4-11 cells; endogenous in cells; host or cells: MV4-11; test: SMARCA4 Western blot MV4-11 degradation; format: cell-based; details: MV4-11 cells, 24 h, read-out: SMARCA4 WB MV411 degradation 24 h: Average external-Abs DC50
Sequence (P51532 whole entry): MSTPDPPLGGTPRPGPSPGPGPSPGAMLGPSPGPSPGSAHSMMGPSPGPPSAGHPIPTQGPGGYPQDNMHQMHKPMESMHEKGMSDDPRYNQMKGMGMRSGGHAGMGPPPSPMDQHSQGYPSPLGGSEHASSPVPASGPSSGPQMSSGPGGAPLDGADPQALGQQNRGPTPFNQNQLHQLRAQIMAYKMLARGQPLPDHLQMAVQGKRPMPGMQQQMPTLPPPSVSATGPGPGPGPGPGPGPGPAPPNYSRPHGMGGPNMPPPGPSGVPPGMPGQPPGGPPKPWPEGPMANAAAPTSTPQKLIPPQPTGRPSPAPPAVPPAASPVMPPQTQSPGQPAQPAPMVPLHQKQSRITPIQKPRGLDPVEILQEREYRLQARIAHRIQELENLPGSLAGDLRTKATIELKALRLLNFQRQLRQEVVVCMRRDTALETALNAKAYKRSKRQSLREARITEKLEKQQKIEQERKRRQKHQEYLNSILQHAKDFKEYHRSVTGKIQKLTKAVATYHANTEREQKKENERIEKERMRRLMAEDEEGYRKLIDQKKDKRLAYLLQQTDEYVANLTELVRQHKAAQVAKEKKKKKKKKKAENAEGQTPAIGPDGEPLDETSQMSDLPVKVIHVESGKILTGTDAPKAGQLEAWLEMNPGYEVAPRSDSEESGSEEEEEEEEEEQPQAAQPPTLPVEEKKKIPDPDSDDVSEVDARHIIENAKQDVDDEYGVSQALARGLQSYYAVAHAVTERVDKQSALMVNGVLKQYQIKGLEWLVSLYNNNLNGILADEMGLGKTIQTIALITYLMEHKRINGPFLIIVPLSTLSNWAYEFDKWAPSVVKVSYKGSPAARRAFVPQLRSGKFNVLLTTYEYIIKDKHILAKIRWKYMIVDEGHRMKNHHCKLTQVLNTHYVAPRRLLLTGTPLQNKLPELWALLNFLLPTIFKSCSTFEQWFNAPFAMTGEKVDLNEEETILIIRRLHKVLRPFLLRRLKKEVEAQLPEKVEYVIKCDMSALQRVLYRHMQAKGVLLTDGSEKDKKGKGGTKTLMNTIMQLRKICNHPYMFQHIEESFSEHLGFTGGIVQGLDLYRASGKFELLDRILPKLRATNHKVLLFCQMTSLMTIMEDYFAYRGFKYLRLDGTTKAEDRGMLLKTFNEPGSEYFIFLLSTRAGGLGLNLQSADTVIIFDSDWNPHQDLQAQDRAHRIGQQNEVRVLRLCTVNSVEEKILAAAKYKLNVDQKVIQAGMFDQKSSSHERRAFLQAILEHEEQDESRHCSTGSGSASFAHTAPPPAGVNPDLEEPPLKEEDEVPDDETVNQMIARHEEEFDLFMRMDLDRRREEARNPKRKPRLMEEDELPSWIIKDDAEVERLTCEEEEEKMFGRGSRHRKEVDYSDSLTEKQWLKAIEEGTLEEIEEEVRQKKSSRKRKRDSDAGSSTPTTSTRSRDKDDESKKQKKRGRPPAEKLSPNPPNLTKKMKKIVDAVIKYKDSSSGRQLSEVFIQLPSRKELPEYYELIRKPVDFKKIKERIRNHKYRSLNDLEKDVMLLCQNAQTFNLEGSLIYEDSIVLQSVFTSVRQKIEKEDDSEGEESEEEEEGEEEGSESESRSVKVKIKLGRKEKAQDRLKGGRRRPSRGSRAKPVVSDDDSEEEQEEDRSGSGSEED
Answer each item with its documented DC50.

Sure, the documented DC50 for Cn1c(=O)n(C2CCC(=O)NC2=O)c2ccc(CCC(=O)N3CCC(c4cnc(N5C6CCC5CN(c5cc(-c7ccccc7O)nnc5N)C6)nc4)CC3)cc21 (centres unmarked) is < 100 nM

Sure, the documented DC50 for Cc1ncsc1-c1ccc(CNC(=O)[C@@H]2C[C@@H](O)CN2C(=O)[C@@H](NC(=O)[C@H]2CC3(C2)C[C@H](c2cnc(N4C5CCC4CN(c4cc(-c6ccccc6O)nnc4N)C5)nc2)C3)C(C)(C)C)c(C(F)(F)F)c1 (some centres unmarked) is 100 to 500 nM

Sure, the documented DC50 for Cn1c(=O)n(C2CCC(=O)NC2=O)c2ccc([C@H]3CC[C@H](N4CCC(c5nccc(N6C7CCC6CN(c6cc(-c8ccccc8O)nnc6N)C7)n5)CC4)CC3)cc21 (some centres unmarked) is < 100 nM

Sure, the documented DC50 for Cc1ncsc1-c1ccc(CNC(=O)[C@@H]2C[C@@H](O)CN2C(=O)[C@@H](NC(=O)C2CC(N3CCC(n4cc(-c5cc(-c6ccccc6O)nnc5N)cn4)CC3)C2)C(C)(C)C)cc1 (some centres unmarked) is 100 to 500 nM

Sure, the documented DC50 for "Cc1ncsc1-c1ccc(CNC(=O)[C@@H]2C[C@@H](O)CN2C(=O)[C@@H](NC(=O)CCN(C)CC#Cc2cnc(N3C4CCC3CN(c3cc(-c5ccccc5O)nnc3N)C4)nc2)C(C)(C)C)cc1" is < 100 nM

* * *

target: SMARCA2 (Homo sapiens, UniProt P51531); assay: MSD SMARCA2 degradation in NCI-H1299 cell line (24 h); assay type: cell-based; set-up: HC: NCI-H1299 cells treated with DMSO; host or cells: NCI-H1299; details: NCI-H1299 cells, read-out: SMARCA2 MSD H1299 degradation 24 h: External Abs-DC50
Sequence (P51531 whole entry): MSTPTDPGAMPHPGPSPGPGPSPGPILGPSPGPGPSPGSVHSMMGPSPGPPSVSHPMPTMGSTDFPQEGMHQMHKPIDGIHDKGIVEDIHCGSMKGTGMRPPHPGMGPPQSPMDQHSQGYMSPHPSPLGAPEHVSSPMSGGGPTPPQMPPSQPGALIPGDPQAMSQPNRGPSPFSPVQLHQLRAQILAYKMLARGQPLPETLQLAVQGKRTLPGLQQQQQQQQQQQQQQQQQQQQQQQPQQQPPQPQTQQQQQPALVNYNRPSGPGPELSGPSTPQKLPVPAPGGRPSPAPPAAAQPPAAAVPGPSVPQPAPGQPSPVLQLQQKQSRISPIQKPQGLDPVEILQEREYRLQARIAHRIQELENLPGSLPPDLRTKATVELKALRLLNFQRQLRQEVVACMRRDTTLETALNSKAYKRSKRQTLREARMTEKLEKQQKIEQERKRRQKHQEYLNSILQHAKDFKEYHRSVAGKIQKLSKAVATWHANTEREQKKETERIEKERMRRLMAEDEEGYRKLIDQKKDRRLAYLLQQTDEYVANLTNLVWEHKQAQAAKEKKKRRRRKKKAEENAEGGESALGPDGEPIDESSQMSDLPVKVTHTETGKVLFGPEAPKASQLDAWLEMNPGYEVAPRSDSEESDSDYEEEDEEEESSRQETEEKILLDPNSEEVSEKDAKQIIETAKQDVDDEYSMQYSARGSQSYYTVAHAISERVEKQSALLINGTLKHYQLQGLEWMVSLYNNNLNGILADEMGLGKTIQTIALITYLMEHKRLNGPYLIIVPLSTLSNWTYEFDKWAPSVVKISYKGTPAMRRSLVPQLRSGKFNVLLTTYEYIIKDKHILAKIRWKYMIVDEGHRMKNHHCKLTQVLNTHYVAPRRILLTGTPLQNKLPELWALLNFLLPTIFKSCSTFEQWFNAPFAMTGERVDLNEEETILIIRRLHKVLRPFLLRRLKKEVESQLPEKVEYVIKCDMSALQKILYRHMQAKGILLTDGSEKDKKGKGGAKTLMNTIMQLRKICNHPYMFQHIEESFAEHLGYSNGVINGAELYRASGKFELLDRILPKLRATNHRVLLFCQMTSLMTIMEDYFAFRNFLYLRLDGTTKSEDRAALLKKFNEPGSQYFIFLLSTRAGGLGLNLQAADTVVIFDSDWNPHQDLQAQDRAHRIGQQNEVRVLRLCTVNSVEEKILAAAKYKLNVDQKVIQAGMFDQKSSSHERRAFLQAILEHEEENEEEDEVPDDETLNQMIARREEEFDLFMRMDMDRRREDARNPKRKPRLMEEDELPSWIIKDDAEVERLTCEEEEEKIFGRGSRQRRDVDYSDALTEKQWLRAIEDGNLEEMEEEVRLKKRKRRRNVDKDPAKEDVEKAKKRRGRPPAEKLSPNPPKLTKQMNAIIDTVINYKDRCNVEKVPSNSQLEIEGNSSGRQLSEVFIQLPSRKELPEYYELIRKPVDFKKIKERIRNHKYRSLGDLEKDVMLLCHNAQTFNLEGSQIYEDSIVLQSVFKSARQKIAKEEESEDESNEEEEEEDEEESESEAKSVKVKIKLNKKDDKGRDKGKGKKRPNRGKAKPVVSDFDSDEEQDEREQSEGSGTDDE
Answer each item with its documented DC50.

Sure, the documented DC50 for CN(CCCOCCCc1cccc2c1n(C)c(=O)n2C1CCC(=O)NC1=O)Cc1ccc(N2CCN(c3cc(-c4ccccc4O)nnc3N)CC2)cc1 (centres unmarked) [I-112] is > 1 µM

Sure, the documented DC50 for NCC#Cc1nccc(N2C3CCC2CN(c2cc(-c4ccccc4O)nnc2N)C3)n1 [I-534] is 0.1 to 0.5 µM

Sure, the documented DC50 for Cc1ncsc1-c1ccc(CNC(=O)[C@@H]2C[C@@H](O)CN2C(=O)[C@@H](NC(=O)[C@H]2CC[C@H](c3cnc(N4C5CCC4CN(c4cc(-c6ccccc6O)nnc4N)C5)nc3)CC2)C(C)(C)C)cc1 [I-337] is < 0.1 µM

Sure, the documented DC50 for CN(Cc1ccc(N2CCN(c3cc(-c4ccccc4O)nnc3N)CC2)cc1)CC1CCN(c2ccc3c(c2)n(C)c(=O)n3C2CCC(=O)NC2=O)CC1 (centres unmarked) [I-114] is < 0.1 µM

Sure, the documented DC50 for Cn1c(=O)n(C2CCC(=O)NC2=O)c2cccc(CCCCCCOc3cccc(CN4CCN(c5cc(-c6ccccc6O)nnc5N)CC4)c3)c21 (centres unmarked) [I-98] is 0.501 to 1 µM

Sure, the documented DC50 for Cn1c(=O)n(C2CCC(=O)NC2=O)c2ccc(CCCN3CCC(c4cnc(N5C6CCC5CN(c5cc(-c7ccccc7O)nnc5N)C6)nc4)CC3)cc21 (centres unmarked) [I-167] is < 0.1 µM

Sure, the documented DC50 for Cc1ncsc1-c1ccc(CNC(=O)[C@@H]2C[C@@H](O)CN2C(=O)[C@@H](NC(=O)COCCOCCOCCNC(=O)CCCOc2cccc(N3C[C@H]4C[C@@H]3CN4/C=C/C(=O)c3ccccc3O)n2)C(C)(C)C)cc1 [I-218] is > 1 µM

Sure, the documented DC50 for Cc1ncsc1-c1ccc(CNC(=O)[C@@H]2C[C@@H](O)CN2C(=O)[C@@H](NC(=O)COCCOCCOCCNC(=O)CCCCCCCCOc2ccnc(N3C[C@H]4C[C@@H]3CN4/C=C/C(=O)c3ccccc3O)c2)C(C)(C)C)cc1 [I-220] is > 1 µM

Sure, the documented DC50 for CN1C(=O)CCC(n2c(=O)n(C)c3cc(CCCCCCCc4cnc(N5C6CCC5CN(c5cc(-c7ccccc7O)nnc5N)C6)nc4)ccc32)C1=O (centres unmarked) [I-187] is > 1 µM

Sure, the documented DC50 for Cn1c(=O)n(C2CCC(=O)NC2=O)c2ccc(CN3CCCC(n4cc(-c5cc(-c6ccccc6O)nnc5N)cn4)C3)cc21 (centres unmarked) [I-177] is < 0.1 µM

Sure, the documented DC50 for Cn1c(=O)n(C2CCC(=O)NC2=O)c2ccc(CCCN3CCCC(n4cc(-c5cc(-c6ccccc6O)nnc5N)cn4)C3)cc21 (centres unmarked) [I-178] is < 0.1 µM

Sure, the documented DC50 for O=C(CCCCCCCCOc1ccc(N2C[C@H]3C[C@@H]2CN3/C=C/C(=O)c2ccccc2O)nc1)NCCOCCOCCOCCNc1cccc2c1C(=O)N(C1CCC(=O)NC1=O)C2=O (some centres unmarked) [I-1] is > 1 µM

Sure, the documented DC50 for Cc1ncsc1-c1ccc(CNC(=O)[C@@H]2C[C@@H](O)CN2C(=O)[C@@H](NC(=O)CCCCN2CCC(Cn3cc(-c4cc(-c5ccccc5O)nnc4N)cn3)CC2)C(C)(C)C)cc1 [I-468] is > 1 µM

Sure, the documented DC50 for O=C(CCCCCCCCOc1ccnc(N2C[C@H]3C[C@@H]2CN3/C=C/C(=O)c2ccccc2O)c1)NCCOCCOCCOCCOCCOCCNc1cccc2c1C(=O)N(C1CCC(=O)NC1=O)C2=O (some centres unmarked) [I-19] is > 1 µM

Sure, the documented DC50 for Cn1c(=O)n(C2CCC(=O)NC2=O)c2ccc(C#CCCCCCCc3cn(Cc4cccc(N5C[C@H]6C[C@@H]5CN6/C=C/C(=O)c5ccccc5O)n4)nn3)cc21 (some centres unmarked) [I-63] is > 1 µM

Sure, the documented DC50 for Cn1c(=O)n(C2CCC(=O)NC2=O)c2cccc(CCCCc3cn(Cc4cccc(N5C[C@H]6C[C@@H]5CN6/C=C/C(=O)c5ccccc5O)n4)nn3)c21 (some centres unmarked) [I-49] is 0.1 to 0.5 µM

Sure, the documented DC50 for Cn1c(=O)n(C2CCC(=O)NC2=O)c2cccc(CCCCCOc3ccc(CN4CCN(c5cc(-c6ccccc6O)nnc5N)CC4)cc3)c21 (centres unmarked) [I-92] is 0.1 to 0.5 µM

Sure, the documented DC50 for Cn1c(=O)n(C2CCC(=O)NC2=O)c2cccc(CCCCCN3CCC[C@@H](Cn4cc(-c5cc(-c6ccccc6O)nnc5N)cn4)C3)c21 (some centres unmarked) [I-190] is 0.1 to 0.5 µM

Sure, the documented DC50 for CN(CCCCCc1cnc(N2C3CCC2CN(c2cc(-c4ccccc4O)nnc2N)C3)nc1)Cc1ccc2c(c1)n(C)c(=O)n2C1CCC(=O)NC1=O (centres unmarked) [I-283] is < 0.1 µM

Sure, the documented DC50 for Cn1c(=O)n(C2CCC(=O)NC2=O)c2cccc(C#CCCCc3cn(Cc4cccc(N5C[C@H]6C[C@@H]5CN6/C=C/C(=O)c5ccccc5O)n4)nn3)c21 (some centres unmarked) [I-65] is > 1 µM

Sure, the documented DC50 for Cn1c(=O)n(C2CCC(=O)NC2=O)c2ccc(CCCN3CCC(n4cc(-c5cc(-c6ccccc6O)nnc5N)cn4)CC3)cc21 (centres unmarked) [I-182] is 0.1 to 0.5 µM

Sure, the documented DC50 for O=C1CCC(N2C(=O)c3cccc(OCCCc4cn(CCCc5cccc(N6C[C@H]7C[C@@H]6CN7/C=C/C(=O)c6ccccc6O)n5)nn4)c3C2=O)C(=O)N1 (some centres unmarked) [I-70] is > 1 µM

Sure, the documented DC50 for CN[C@@H](C)C(=O)N[C@H](C(=O)N1Cc2cc(OCCOCCOCCOCCOCCNC(=O)CCCCCCCCOc3ccnc(N4C[C@H]5C[C@@H]4CN5/C=C/C(=O)c4ccccc4O)c3)ccc2C[C@H]1C(=O)N[C@@H]1CCCc2ccccc21)C(C)(C)C [I-203] is > 1 µM
